target: mouse PPARγ (Mus musculus); construct: amino acids 204-505 for m and mm from PPARγ; expressed in transfected cells; host or cells: CV-1; test: GAL4-PPAR chimera transactivation assay in CV-1 cells at 10% or 0.1% serum (Example 4); assay type: cell-based; details: 10% serum, read-out: GAL4-chimera (mouse) EC50 (μM) hPPARγ
Sequence (P37238 204-505): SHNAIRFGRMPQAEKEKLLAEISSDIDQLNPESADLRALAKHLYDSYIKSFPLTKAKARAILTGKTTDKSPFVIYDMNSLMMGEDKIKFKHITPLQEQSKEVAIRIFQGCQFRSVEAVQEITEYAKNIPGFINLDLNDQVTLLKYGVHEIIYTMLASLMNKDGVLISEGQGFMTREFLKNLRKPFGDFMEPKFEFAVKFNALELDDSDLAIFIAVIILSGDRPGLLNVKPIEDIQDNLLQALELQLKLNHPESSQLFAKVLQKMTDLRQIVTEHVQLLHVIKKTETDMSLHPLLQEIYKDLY
reported-endpoint: EC50

Name the recorded EC50 of the item Cc1cc(C(=O)CCc2sc(-c3ccc(C(F)(F)F)cc3)nc2C(C)C)ccc1OCC(=O)O in your answer.
> 10 µM
